Assay: yeast display, Sf9 membrane polyspecificity reagent, FACS + sequencing; frameworks hold sequencing errors

Chain	polyreactivity (PSR sort gate)
QVQLVQSGGGLVQAGGSLRLSCAASGRTFPIYAMGWYRQAPWKERELVAAITRGGRTNYADSVMGRFTISRDNAKNTVYLQMNSLKPEDTAVYYCDARTYGTYLYAEYDYWGQCTQVTVSS	high polyreactivity
QVQLVESGGGLVQAGGSLRLSCAASGRIFGGYTMGWYRQAPGKEREFVAAITSSGGSTYYADSVKGRFTISRDNAKNTVYLQMYSLKPEETAVYYCAVDDYYYDYDYWGQGTQVTVSS	low polyreactivity
QVQLVESGGGLVQAGGSLRLSCAASGSTFVTYAMGWYRQAPGKEREFVAAISRTGGSTYYADSVKGRFTISRDNAKYTVYLQMNSLKPEDSAVYYCNRVGRGYSHNQYDLGYWGQGTLVTVSS	low polyreactivity
QVQLVESGGGLVQAGGSLRLSCAASGLTFKENVMGWYRQAPGKERELVAAISTGASTYYADSVKGRCTISRDNAKNTVYLQMNSLKPEDTAVYYGAKRVTRWYGYWGQGTQVTVSS	high polyreactivity
QVQLVESGGGIVQAGGSLRLSCAASGSILGYYVMGWYRQAPGIESELVAAISWSSGSTYYADSVKGRFTISRDNAKNTVYLQMNSLIPEDTAVYFCAAPIGDVYVGKGYDSWGQGTQVTVSS	low polyreactivity
QVQLVESGVGLVQAGGSLRLSCAASGSIFASYTMGWYIQAPGKERELVAAINRSGGSTYYADSVKGRFTISRDNAKNTVYFQMNSLKPDDTAVYYCAAGYIRRYYGYDYWGQGTQVTVSS	high polyreactivity
QVQLQESGGGLVQAGGSLRLSCAASGSISHYIFMGWYRQAPGKQREFVAGIGYGGTTNYADSVKGRFTISRDNAKNTVYLQRNSLKPEDTGMYYCAAREATEFYLYYWGQGTQVTVSS	low polyreactivity
QVQLVESGGGLVQAGGSLRLSCAASGRIFWGYVMGWYRQAPGKERELVAAISSGGDTHYADSVKGRFTISRDNAKKTVYLQMNSLKPEDTAVYYCAARPNFTPYEYGYWGQGTQVTVSS	low polyreactivity
QVQLVESGGGLVQAGGSLRLSCAASGRTFYYNAMVWYRQAPGKERELVAAITWSGGRTFYADSVKGRFTISRDNAKNTVYLQMNSLKPEDTAVYYCNAYPVFRSYDYWGQGTQVTVSS	high polyreactivity
QDQLVESGGGLVQAGGSLRLSCAASGSTFSGYGMGWYRQAPGKERELVAAITSSGGRTYYADSVKGRFTISRDNAKNTVYLQMNSLKPEDTAVYYCAALYYHEYDYWGQGTQVTVSS	low polyreactivity
QVQLVESGGGLVQAGGSLRLSCAASGSIFYSNAMGWYRQAPGKERELVAAISVSGVTTYYADSVKGRFTISRDNAKNTVYLQMNSLKPEDTAVYYCAADTGYRYDDYYWWGGEYDYWGQGTQVTVSS	low polyreactivity
QVQLVESGGGLVQAGGSLRLSCAASGRIFSPYTMGWYRQAPGKERELVAAINERGTSTYYADTVKGRFSISRDNAKNTVYLQKNSLKPEDTAVYYCAARVRQRRYGTTSGGYDYWGQGTQVTVSS	high polyreactivity
QVQLVESGGRLVQAGGSLRLSCAASGNILRFNALGWYRQAPGKEWQLVAAISRSGGTTYFADSVKGRFTISRDTAKNTVYLQMNSLKPEDTAVYYCAARSRYGESPGYYWGQGTQVTVSS	high polyreactivity
QVQHVESGGGLVQAGGSLRLSCAASGRTFGSNAMGWYRQAPGKERELVAAISLRGGRTYYADSVKGRFTISRDNAKNTVYLLMNSLKPEDTAVYYCNAVHYLYGARSRLTYDYWGQGTQVTVSS	high polyreactivity
QVQLVESGGGLVQAGGSLRLSCAASGSTFVTYTMGWYRQAPGKERELVAAISWSGDTTYADSVKGRFTISRDNAKNTVYLQMNSLKPEDTAVYYCAADDDWSGVEFDYWGQGTQVTVSS	low polyreactivity
QVQLVESGGGLDQAGGSLRLSCAASGSTFYSYDMGWYRQAPGKEREMVAAISSGGSTYYADSVKGRFTISRDNAKNTVYLQMNSLKPEDTEVYYCAAKRRATTGYRYDYWGQGTQGTVSS	high polyreactivity
QVQLVESGGGIVQAGGSLRLSCAASGGTCWFYDMGWYRQAPGKERELVAAINSDGSTYYADSVKGRFTISRDNAMNTVYLQMNSLQPEDTAVYYCAADISLHWYYYRRYNYWGQGTQGTVSS	low polyreactivity
QVQLEESGGGLVQAGGSLRLSCAASGSIFVTNVMGWYRQAPGKERELVAVINSGGRTYYADSVKGRFTISRDNAKNTVYLQMNSLKPEDTAVYYCAKDSWSSYPSLYPEFDYWGQGTQVTVSS	low polyreactivity
QVQLEESGGGLVQAGGTLRLSCAASGSTYVPYAMGWNRQETGKERELVSAIRRRGDSTNYADSVKGRFTISRDNAKNTVYLQMNSLKPEDTAVYYCAVRPYRSACGSVTRGAYYYWGQGTQVTVSS	high polyreactivity
QVQLVESGGGLVQAGGSLRLSCAASGRTFAYNAMGWYRQAAGKVRELVASITSGGSTNYADSVKGRFTISRDNAKNTVYLQMNSLKPEDTAVYYFIKDGKYHRVLYEYWGQGTQVTVSS	low polyreactivity
QVQLVESGGGLVQAGGSIRLSCAASGRIFHPYAMGWYRQAPGKERELVATISWSGGSTTYADSVKGRFTISRDNAKNTVYLQMNSLKPEDTAVYYCNADYWWSYVRFDYWGQGTQVTVSS	low polyreactivity
